molecular target: Man(a1-2)Man(a1-6)[Man(a1-3)]Man(a1-6)[Man(a1-2)Man(a1-2)Man(a1-3)]Man(b1-4)GlcNAc(b1-4)GlcNAc; test: glycan array binding signal (z-score within array); higher = stronger binding; conditions: glycan notation: IUPAC condensed, linker removed
This excerpt belongs to a sample that is enriched for the strongest signals.
value.type: glycan array binding signal (z-score)
Answers are plain numbers.

GNA (Galanthus nivalis), P30617 (protein) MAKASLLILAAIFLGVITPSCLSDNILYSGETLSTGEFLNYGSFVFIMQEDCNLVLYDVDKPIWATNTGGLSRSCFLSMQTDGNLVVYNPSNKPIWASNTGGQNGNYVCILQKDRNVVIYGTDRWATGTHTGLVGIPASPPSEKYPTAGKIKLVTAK yielded glycan array binding signal (z-score) of 3.2

Mincle (Bos taurus) (protein) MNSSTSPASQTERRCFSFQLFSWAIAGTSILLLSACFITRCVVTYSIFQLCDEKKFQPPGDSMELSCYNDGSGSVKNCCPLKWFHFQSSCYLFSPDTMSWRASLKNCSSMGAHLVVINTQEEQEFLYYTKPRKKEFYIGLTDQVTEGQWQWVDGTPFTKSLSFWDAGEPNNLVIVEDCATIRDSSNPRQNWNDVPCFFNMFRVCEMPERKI yielded glycan array binding signal (z-score) of 0.474

DC-Sign-R (Homo sapiens), Q9H2X3 (protein) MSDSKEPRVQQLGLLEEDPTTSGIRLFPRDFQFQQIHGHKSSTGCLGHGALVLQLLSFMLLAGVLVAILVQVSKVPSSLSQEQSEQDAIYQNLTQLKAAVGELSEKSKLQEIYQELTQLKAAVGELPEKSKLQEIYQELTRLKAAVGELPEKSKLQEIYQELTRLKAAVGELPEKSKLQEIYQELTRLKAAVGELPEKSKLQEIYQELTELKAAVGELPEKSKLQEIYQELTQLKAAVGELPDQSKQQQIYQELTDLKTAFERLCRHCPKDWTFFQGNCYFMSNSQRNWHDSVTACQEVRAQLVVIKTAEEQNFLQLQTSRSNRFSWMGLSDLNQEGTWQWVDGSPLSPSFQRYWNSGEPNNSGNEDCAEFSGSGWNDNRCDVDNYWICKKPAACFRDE yielded glycan array binding signal (z-score) of -0.019

PNA (Arachis hypogaea), P02872 (protein) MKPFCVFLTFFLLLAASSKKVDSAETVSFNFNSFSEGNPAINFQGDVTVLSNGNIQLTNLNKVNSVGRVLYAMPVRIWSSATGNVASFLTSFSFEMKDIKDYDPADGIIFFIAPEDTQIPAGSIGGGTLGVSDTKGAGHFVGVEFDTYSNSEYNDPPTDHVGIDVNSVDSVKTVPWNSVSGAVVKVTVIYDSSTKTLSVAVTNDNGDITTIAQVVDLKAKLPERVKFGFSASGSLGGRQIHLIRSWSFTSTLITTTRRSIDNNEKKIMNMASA yielded glycan array binding signal (z-score) of -0.178

// moving on: another record for glycan array binding signal (z-score)
rCnSL-A (Clitocybe nebularis) (protein) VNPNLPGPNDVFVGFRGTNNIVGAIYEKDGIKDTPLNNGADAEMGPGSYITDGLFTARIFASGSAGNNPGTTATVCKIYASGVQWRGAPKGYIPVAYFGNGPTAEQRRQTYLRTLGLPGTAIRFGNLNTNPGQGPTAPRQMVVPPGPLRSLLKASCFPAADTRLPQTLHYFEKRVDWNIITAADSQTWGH yielded glycan array binding signal (z-score) of -0.138
